Target entity: ITK (human) (UniProt Q08881)
Sequence (Q08881 whole entry, looked up): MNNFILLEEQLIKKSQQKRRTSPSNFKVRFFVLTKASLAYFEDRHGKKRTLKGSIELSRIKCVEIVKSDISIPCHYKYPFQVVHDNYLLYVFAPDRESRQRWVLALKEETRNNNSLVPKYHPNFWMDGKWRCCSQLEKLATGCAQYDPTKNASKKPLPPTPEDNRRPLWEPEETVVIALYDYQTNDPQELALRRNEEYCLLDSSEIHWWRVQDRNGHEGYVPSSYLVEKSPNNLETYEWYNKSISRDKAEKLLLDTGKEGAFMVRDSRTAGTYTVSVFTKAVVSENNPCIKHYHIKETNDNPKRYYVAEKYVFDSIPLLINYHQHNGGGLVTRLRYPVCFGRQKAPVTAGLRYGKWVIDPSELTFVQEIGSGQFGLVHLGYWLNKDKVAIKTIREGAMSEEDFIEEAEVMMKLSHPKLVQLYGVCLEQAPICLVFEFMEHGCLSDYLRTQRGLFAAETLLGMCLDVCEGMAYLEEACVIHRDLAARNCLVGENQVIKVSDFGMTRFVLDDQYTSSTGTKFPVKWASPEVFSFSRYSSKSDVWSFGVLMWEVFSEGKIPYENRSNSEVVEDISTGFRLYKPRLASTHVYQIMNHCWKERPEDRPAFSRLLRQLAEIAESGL
Measurement protocol: KINOMEscan competition binding
Measurement parameters: compound 10.0 µM
Readout kind: kinase still bound, per cent of control

What measured kinase still bound, per cent of control goes with `Nc1ncnc2c1c(-c1cccc(O)c1)cn2C1CCNCC1` ?
no effect (inactive)

What measured kinase still bound, per cent of control goes with `N#Cc1ccc(-c2cnc3[nH]cc(NC(=O)c4cccnc4)c3c2)cc1` ?
no effect (inactive)

What measured kinase still bound, per cent of control goes with `c1ccc(-c2n[nH]cc2-c2ccnc3ccccc23)nc1` ?
no effect (inactive)

What measured kinase still bound, per cent of control goes with `NC(=O)c1ccc(Nc2cc(-c3ccc(F)cc3)[nH]n2)cc1` ?
no effect (inactive)

What measured kinase still bound, per cent of control goes with `O=C(Nc1n[nH]c2nc(-c3cccc(O)c3)ccc12)C1CC1` ?
no effect (inactive)

What measured kinase still bound, per cent of control goes with `NC(=O)c1ccc(-c2cc(C(N)=O)c(N)c(-c3ccc(S(N)(=O)=O)cc3)c2)cc1` ?
no effect (inactive)

What measured kinase still bound, per cent of control goes with `Cc1ccc(NC(=O)c2cccc(N3CCCCC3)c2)cc1-c1ccc(C(=O)NCC2CC2)cc1` ?
no effect (inactive)

What measured kinase still bound, per cent of control goes with `CC(=O)c1c(-c2ccncc2)[nH]c(-c2ccncc2)c1C` ?
no effect (inactive)

What measured kinase still bound, per cent of control goes with `CCS(=O)(=O)Nc1ccc2c(c1)[C@H](/C(=N/c1ccc(CN3CCCCC3)cc1)c1ccccc1)C(=O)N2` ?
0.1%

What measured kinase still bound, per cent of control goes with `Cc1ccc(O)cc1Nc1ccnc(Nc2cccc(C(N)=O)c2)n1` ?
no effect (inactive)

More entries:
What measured kinase still bound, per cent of control goes with `Cc1ccc(C(=O)Nc2cccc(C(C)(C)C)c2)cc1-c1ccc(C(=O)NCC2CC2)cc1` ?
no effect (inactive)

----------
Target entity: BLK (human) (UniProt P51451)
Sequence (P51451 whole entry, looked up): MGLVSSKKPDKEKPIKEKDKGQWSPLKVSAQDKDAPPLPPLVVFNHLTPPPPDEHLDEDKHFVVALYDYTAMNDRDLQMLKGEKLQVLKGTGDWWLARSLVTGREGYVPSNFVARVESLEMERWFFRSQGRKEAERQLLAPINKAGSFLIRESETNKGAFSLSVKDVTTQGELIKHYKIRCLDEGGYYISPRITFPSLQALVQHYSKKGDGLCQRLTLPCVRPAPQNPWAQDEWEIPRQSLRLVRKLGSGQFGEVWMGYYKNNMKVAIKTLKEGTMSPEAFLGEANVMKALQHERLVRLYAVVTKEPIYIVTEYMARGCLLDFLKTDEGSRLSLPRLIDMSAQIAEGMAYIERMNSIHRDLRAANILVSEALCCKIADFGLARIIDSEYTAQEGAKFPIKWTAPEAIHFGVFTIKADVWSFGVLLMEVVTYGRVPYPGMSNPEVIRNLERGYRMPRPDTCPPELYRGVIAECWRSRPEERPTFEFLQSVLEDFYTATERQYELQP
Measurement protocol: KINOMEscan competition binding
Measurement parameters: compound 10.0 µM
Readout kind: kinase still bound, per cent of control

Here are 5 compounds together with their reported answers.
What measured kinase still bound, per cent of control goes with `CCS(=O)(=O)Nc1ccc2c(c1)[C@H](/C(=N/c1ccc(CN3CCCCC3)cc1)c1ccccc1)C(=O)N2` ?
0%

What measured kinase still bound, per cent of control goes with `NC(=O)c1ccc(Nc2cc(-c3ccc(F)cc3)[nH]n2)cc1` ?
no effect (inactive)

What measured kinase still bound, per cent of control goes with `Cc1ccc(NC(=O)c2cccc(N3CCCCC3)c2)cc1-c1ccc(C(=O)NCC2CC2)cc1` ?
no effect (inactive)

What measured kinase still bound, per cent of control goes with `c1ccc(-c2n[nH]cc2-c2ccnc3ccccc23)nc1` ?
no effect (inactive)

What measured kinase still bound, per cent of control goes with `CC(=O)c1c(-c2ccncc2)[nH]c(-c2ccncc2)c1C` ?
no effect (inactive)

More entries:
What measured kinase still bound, per cent of control goes with `O=C1Nc2ccccc2/C1=C/c1ccc[nH]1` ?
no effect (inactive)

----------
Target entity: UniProt Q9Y6R4
Sequence (Q9Y6R4 whole entry, looked up): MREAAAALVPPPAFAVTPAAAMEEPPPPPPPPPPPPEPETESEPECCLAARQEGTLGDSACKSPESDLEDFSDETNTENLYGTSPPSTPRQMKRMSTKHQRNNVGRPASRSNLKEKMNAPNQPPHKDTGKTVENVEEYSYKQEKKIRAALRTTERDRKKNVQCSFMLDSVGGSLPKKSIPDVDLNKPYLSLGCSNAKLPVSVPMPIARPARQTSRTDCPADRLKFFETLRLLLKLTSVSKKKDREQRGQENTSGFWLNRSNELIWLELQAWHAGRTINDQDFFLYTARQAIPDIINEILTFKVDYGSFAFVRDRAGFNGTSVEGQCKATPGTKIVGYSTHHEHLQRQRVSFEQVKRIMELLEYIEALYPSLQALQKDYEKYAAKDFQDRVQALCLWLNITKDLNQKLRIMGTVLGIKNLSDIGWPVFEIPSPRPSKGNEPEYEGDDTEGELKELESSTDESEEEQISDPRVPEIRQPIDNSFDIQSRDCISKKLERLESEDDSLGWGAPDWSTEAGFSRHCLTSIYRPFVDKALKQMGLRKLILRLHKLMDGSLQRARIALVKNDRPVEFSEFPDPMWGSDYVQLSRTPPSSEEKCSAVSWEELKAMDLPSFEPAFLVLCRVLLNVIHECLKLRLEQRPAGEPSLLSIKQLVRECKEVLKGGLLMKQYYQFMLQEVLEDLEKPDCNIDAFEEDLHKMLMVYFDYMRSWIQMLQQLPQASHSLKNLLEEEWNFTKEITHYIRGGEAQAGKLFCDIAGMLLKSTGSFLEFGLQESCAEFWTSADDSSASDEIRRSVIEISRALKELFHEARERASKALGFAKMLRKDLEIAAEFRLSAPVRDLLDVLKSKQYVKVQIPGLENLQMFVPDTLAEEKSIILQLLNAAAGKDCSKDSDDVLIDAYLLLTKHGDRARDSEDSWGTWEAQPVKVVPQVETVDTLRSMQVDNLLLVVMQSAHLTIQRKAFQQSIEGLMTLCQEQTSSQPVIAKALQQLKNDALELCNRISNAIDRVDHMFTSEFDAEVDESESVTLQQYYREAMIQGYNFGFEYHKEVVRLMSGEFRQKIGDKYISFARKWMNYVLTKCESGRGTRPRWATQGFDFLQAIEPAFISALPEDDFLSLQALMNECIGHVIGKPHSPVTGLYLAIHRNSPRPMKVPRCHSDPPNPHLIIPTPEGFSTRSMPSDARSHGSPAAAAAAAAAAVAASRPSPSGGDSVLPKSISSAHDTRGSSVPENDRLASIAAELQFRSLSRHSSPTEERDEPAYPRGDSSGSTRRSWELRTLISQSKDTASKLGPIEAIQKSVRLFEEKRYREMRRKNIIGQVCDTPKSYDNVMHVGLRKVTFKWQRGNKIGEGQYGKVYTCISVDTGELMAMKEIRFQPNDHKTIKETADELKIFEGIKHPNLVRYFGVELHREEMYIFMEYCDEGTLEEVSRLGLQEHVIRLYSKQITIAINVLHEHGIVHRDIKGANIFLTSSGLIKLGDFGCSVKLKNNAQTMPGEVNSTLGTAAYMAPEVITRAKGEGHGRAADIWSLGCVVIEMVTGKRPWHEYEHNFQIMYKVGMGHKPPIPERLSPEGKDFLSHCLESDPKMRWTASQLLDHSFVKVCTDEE
Measurement protocol: KINOMEscan competition binding
Measurement parameters: compound 10.0 µM
Readout kind: kinase still bound, per cent of control

What measured kinase still bound, per cent of control goes with `O=C(Nc1n[nH]c2nc(-c3cccc(O)c3)ccc12)C1CC1` ?
no effect (inactive)

What measured kinase still bound, per cent of control goes with `Cc1ccc(O)cc1Nc1ccnc(Nc2cccc(C(N)=O)c2)n1` ?
no effect (inactive)

What measured kinase still bound, per cent of control goes with `NC(=O)c1ccc(-c2cc(C(N)=O)c(N)c(-c3ccc(S(N)(=O)=O)cc3)c2)cc1` ?
no effect (inactive)

What measured kinase still bound, per cent of control goes with `NC(=O)Nc1sc(-c2ccc(F)cc2)cc1C(N)=O` ?
no effect (inactive)

What measured kinase still bound, per cent of control goes with `N#Cc1ccc(-c2cnc3[nH]cc(NC(=O)c4cccnc4)c3c2)cc1` ?
no effect (inactive)

What measured kinase still bound, per cent of control goes with `CCS(=O)(=O)Nc1ccc2c(c1)[C@H](/C(=N/c1ccc(CN3CCCCC3)cc1)c1ccccc1)C(=O)N2` ?
28.3%

Query compound follows.
What measured kinase still bound, per cent of control goes with `CC(=O)c1c(-c2ccncc2)[nH]c(-c2ccncc2)c1C` ?
no effect (inactive)

----------
Target entity: PHKG1 (human) (UniProt Q16816)
Sequence (Q16816 whole entry, looked up): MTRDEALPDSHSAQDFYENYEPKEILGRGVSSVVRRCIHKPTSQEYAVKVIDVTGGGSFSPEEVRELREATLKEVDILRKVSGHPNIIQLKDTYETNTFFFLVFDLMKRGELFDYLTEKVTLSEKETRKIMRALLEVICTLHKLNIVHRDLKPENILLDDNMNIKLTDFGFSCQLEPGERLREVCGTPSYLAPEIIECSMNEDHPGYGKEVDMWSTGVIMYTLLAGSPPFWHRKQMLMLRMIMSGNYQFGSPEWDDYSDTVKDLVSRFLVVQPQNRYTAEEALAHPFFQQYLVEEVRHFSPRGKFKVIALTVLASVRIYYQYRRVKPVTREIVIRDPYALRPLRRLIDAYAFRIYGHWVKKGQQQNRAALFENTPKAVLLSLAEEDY
Measurement protocol: KINOMEscan competition binding
Measurement parameters: compound 10.0 µM
Readout kind: kinase still bound, per cent of control

PHKG1 (human) (UniProt Q16816) / kinase still bound, per cent of control / `CCS(=O)(=O)Nc1ccc2c(c1)[C@H](/C(=N/c1ccc(CN3CCCCC3)cc1)c1ccccc1)C(=O)N2` : value?
0.1%

PHKG1 (human) (UniProt Q16816) / kinase still bound, per cent of control / `O=C(Nc1n[nH]c2nc(-c3cccc(O)c3)ccc12)C1CC1` : value?
no effect (inactive)

PHKG1 (human) (UniProt Q16816) / kinase still bound, per cent of control / `Cc1ccc(O)cc1Nc1ccnc(Nc2cccc(C(N)=O)c2)n1` : value?
no effect (inactive)

PHKG1 (human) (UniProt Q16816) / kinase still bound, per cent of control / `c1ccc(-c2n[nH]cc2-c2ccnc3ccccc23)nc1` : value?
no effect (inactive)

PHKG1 (human) (UniProt Q16816) / kinase still bound, per cent of control / `NC(=O)c1ccc(Nc2cc(-c3ccc(F)cc3)[nH]n2)cc1` : value?
no effect (inactive)

PHKG1 (human) (UniProt Q16816) / kinase still bound, per cent of control / `NC(=O)Nc1sc(-c2ccc(F)cc2)cc1C(N)=O` : value?
no effect (inactive)

PHKG1 (human) (UniProt Q16816) / kinase still bound, per cent of control / `NC(=O)c1ccc(-c2cc(C(N)=O)c(N)c(-c3ccc(S(N)(=O)=O)cc3)c2)cc1` : value?
no effect (inactive)

PHKG1 (human) (UniProt Q16816) / kinase still bound, per cent of control / `Cc1ccc(NC(=O)c2cccc(N3CCCCC3)c2)cc1-c1ccc(C(=O)NCC2CC2)cc1` : value?
no effect (inactive)

PHKG1 (human) (UniProt Q16816) / kinase still bound, per cent of control / `Cc1ccc(C(=O)Nc2cccc(C(C)(C)C)c2)cc1-c1ccc(C(=O)NCC2CC2)cc1` : value?
no effect (inactive)

PHKG1 (human) (UniProt Q16816) / kinase still bound, per cent of control / `CC(=O)c1c(-c2ccncc2)[nH]c(-c2ccncc2)c1C` : value?
no effect (inactive)

More entries:
PHKG1 (human) (UniProt Q16816) / kinase still bound, per cent of control / `Cc1cc(Nc2cc(N3CCN(C)CC3)nc(Sc3ccc(NC(=O)C4CC4)cc3)n2)[nH]n1` : value?
no effect (inactive)

PHKG1 (human) (UniProt Q16816) / kinase still bound, per cent of control / `Nc1ncnc2c1c(-c1cccc(O)c1)cn2C1CCNCC1` : value?
no effect (inactive)

PHKG1 (human) (UniProt Q16816) / kinase still bound, per cent of control / `O=C1Nc2ccccc2/C1=C/c1ccc[nH]1` : value?
no effect (inactive)

----------
Target entity: CSNK2A1 (human)
Measurement protocol: KINOMEscan competition binding
Measurement parameters: compound 10.0 µM
Readout kind: kinase still bound, per cent of control

Here are 5 molecules together with their reported answers.
What measured kinase still bound, per cent of control goes with `NC(=O)Nc1sc(-c2ccc(F)cc2)cc1C(N)=O` ?
0%

What measured kinase still bound, per cent of control goes with `Cc1ccc(O)cc1Nc1ccnc(Nc2cccc(C(N)=O)c2)n1` ?
no effect (inactive)

What measured kinase still bound, per cent of control goes with `Nc1ncnc2c1c(-c1cccc(O)c1)cn2C1CCNCC1` ?
no effect (inactive)

What measured kinase still bound, per cent of control goes with `CCS(=O)(=O)Nc1ccc2c(c1)[C@H](/C(=N/c1ccc(CN3CCCCC3)cc1)c1ccccc1)C(=O)N2` ?
0%

What measured kinase still bound, per cent of control goes with `Cc1ccc(C(=O)Nc2cccc(C(C)(C)C)c2)cc1-c1ccc(C(=O)NCC2CC2)cc1` ?
no effect (inactive)

More entries:
What measured kinase still bound, per cent of control goes with `CC(=O)c1c(-c2ccncc2)[nH]c(-c2ccncc2)c1C` ?
no effect (inactive)

What measured kinase still bound, per cent of control goes with `NC(=O)c1ccc(Nc2cc(-c3ccc(F)cc3)[nH]n2)cc1` ?
no effect (inactive)

What measured kinase still bound, per cent of control goes with `Cc1ccc(NC(=O)c2cccc(N3CCCCC3)c2)cc1-c1ccc(C(=O)NCC2CC2)cc1` ?
no effect (inactive)

----------
Target entity: KDR (human) (UniProt P35968)
Sequence (P35968 whole entry, looked up): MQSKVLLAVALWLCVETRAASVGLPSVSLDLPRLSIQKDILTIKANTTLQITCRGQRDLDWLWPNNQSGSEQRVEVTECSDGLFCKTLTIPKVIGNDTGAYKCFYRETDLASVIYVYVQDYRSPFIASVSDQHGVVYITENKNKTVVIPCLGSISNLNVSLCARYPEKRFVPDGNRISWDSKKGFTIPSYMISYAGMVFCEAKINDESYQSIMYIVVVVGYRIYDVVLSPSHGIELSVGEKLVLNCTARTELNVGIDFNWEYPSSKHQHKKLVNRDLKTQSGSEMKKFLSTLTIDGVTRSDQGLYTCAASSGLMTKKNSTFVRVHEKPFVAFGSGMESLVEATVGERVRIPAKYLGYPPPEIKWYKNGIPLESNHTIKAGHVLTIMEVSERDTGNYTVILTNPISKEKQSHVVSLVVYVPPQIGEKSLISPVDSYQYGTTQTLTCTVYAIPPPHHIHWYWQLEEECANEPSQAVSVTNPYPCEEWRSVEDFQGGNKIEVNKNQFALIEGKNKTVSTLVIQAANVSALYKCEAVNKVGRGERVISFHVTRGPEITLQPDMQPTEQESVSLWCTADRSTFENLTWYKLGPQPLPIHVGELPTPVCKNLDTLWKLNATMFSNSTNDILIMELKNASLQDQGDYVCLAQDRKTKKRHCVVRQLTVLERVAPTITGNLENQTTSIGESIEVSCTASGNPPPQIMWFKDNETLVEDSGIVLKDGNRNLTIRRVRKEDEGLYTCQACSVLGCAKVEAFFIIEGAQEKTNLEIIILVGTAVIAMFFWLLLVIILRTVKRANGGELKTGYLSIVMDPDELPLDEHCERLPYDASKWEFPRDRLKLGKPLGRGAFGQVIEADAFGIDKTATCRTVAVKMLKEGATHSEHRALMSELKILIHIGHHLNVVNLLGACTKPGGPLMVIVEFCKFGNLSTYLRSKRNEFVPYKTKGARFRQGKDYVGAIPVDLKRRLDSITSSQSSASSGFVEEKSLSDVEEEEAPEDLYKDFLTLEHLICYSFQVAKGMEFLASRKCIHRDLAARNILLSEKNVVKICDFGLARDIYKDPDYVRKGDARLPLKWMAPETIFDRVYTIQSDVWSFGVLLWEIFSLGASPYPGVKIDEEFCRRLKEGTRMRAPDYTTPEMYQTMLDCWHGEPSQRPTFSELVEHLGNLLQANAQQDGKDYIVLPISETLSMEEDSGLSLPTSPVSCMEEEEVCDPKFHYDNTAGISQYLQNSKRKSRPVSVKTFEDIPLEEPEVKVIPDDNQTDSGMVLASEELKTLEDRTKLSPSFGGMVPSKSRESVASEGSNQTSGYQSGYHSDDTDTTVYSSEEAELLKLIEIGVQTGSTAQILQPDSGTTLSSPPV
Measurement protocol: KINOMEscan competition binding
Measurement parameters: compound 10.0 µM
Readout kind: kinase still bound, per cent of control

Here are 6 molecules together with their reported answers.
What measured kinase still bound, per cent of control goes with `Cc1ccc(NC(=O)c2cccc(N3CCCCC3)c2)cc1-c1ccc(C(=O)NCC2CC2)cc1` ?
no effect (inactive)

What measured kinase still bound, per cent of control goes with `CC(=O)c1c(-c2ccncc2)[nH]c(-c2ccncc2)c1C` ?
no effect (inactive)

What measured kinase still bound, per cent of control goes with `O=C(Nc1n[nH]c2nc(-c3cccc(O)c3)ccc12)C1CC1` ?
no effect (inactive)

What measured kinase still bound, per cent of control goes with `O=C1Nc2ccccc2/C1=C/c1ccc[nH]1` ?
0%

What measured kinase still bound, per cent of control goes with `NC(=O)c1ccc(-c2cc(C(N)=O)c(N)c(-c3ccc(S(N)(=O)=O)cc3)c2)cc1` ?
no effect (inactive)

What measured kinase still bound, per cent of control goes with `CN(C)c1ccc(-c2cc3ncccc3c(NCCCCN)n2)cc1` ?
no effect (inactive)

More entries:
What measured kinase still bound, per cent of control goes with `CCS(=O)(=O)Nc1ccc2c(c1)[C@H](/C(=N/c1ccc(CN3CCCCC3)cc1)c1ccccc1)C(=O)N2` ?
0%

What measured kinase still bound, per cent of control goes with `Cc1ccc(C(=O)Nc2cccc(C(C)(C)C)c2)cc1-c1ccc(C(=O)NCC2CC2)cc1` ?
no effect (inactive)

What measured kinase still bound, per cent of control goes with `N#Cc1ccc(-c2cnc3[nH]cc(NC(=O)c4cccnc4)c3c2)cc1` ?
no effect (inactive)

What measured kinase still bound, per cent of control goes with `c1ccc(-c2n[nH]cc2-c2ccnc3ccccc23)nc1` ?
no effect (inactive)
